Target system: peripheral opioid receptors (Mus musculus, UniProt P42866)
Construct: Mice maintained (6 mice/cage) on 0.01M saccharin water with 1 g/1 morphine sulfate; from tissue; host or cells: living morphine-maintained mice (in vivo test; endogenous receptor)
Sequence (P42866 whole entry): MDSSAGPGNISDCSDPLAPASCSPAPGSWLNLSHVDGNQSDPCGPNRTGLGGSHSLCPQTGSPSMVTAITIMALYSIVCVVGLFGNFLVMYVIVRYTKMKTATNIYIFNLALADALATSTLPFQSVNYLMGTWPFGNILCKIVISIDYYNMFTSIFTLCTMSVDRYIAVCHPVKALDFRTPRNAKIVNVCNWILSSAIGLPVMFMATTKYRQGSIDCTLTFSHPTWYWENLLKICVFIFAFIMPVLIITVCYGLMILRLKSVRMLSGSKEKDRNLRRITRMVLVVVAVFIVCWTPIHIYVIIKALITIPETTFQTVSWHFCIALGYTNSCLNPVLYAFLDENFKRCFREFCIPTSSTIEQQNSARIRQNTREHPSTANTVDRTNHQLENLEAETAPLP
Test name: precipitated diarrhea in morphine-maintained mice (peripheral opioid activity) and comparison with the writhing test
Type: in vivo
Experimental parameters: mouse, 0.5 h, morphine-maintained mice; antagonist subcutaneous or oral; 30 min observation
Structures can show the parent of a compound that is named as a salt.
Could you mark each record true (1) if its ED50 falls strictly under 0.08 mg/kg, and false (0) if it equals or exceeds it?

Before answering, review these 5 worked examples.
Strictly below 0.08 mg/kg: is that where ED50 of C[C@H]1CN(CCC(C(=O)NCC(=O)O)c2ccccc2)CC[C@@]1(C)c1cccc(O)c1 (relative stereo) [Example 12, monohydrate] sits?
true (1)

Strictly below 0.08 mg/kg: is that where ED50 of CC(C)CNC(=O)CNC(=O)C(Cc1ccccc1)CN1CC[C@@](C)(c2cccc(O)c2)[C@@H](C)C1 (some centres unmarked) [Example 50, monohydrate hydrochloride] sits?
false (0)

Strictly below 0.08 mg/kg: is that where ED50 of CC(=O)OC(C)OC(=O)CNC(=O)C(Cc1ccccc1)CN1CC[C@@](C)(c2cccc(O)c2)[C@@H](C)C1 (relative stereo) [Example 94] sits?
true (1)

Strictly below 0.08 mg/kg: is that where ED50 of CCCCCOC(=O)CNC(=O)C(Cc1ccccc1)CN1CC[C@@](C)(c2cccc(O)c2)[C@@H](C)C1 (relative stereo) [Example 86] sits?
true (1)

Strictly below 0.08 mg/kg: is that where ED50 of CCOC(=O)CN(C)C(=O)C(Cc1ccccc1)CN1CC[C@@](C)(c2cccc(O)c2)[C@@H](C)C1 (some centres unmarked) [Example 65, monohydrochloride] sits?
false (0)

---
Strictly below 0.08 mg/kg: is that where ED50 of C[C@H]1CN(CC(Cc2ccccc2)C(=O)NCC(=O)OCC(N)=O)CC[C@@]1(C)c1cccc(O)c1 (relative stereo) [Example 87] sits?
false (0)

Strictly below 0.08 mg/kg: is that where ED50 of C[C@H]1CN(CCC(C(=O)NCC(N)=O)c2ccccc2)CC[C@@]1(C)c1cccc(O)c1 (relative stereo) [Example 14, monohydrochloride monohydrate] sits?
false (0)
